Measured HC50 at 1 h, listed per entry.
- Test protocol: Toxicity in human RBC assessed as hemolysis after 1 hr
- Assay type: cell-based, Erythrocyte
- Experimental conditions: red blood cells
Quantity: HC50 at 1 h

CCCCCCCCCCCCCCCC(=O)N[C@@H](C)CN(CC(=O)N[C@@H](C)CN(CC(=O)N[C@@H](CCC(=O)O)CN(CC(=O)N[C@@H](CCC(=O)O)CN(CC(=O)N[C@@H](CCC(=O)O)CN(CC(N)=O)C(=O)CC(=O)O)C(=O)CC(=O)O)C(=O)CC(=O)O)C(C)=O)C(C)=O ... > 500 µg/mL
CCCCCCCCCCCCCCCC(=O)N[C@@H](C)CN(CC(=O)N[C@@H](C)CN(CC(=O)N[C@@H](Cc1ccccc1)CN(CC(=O)N[C@@H](Cc1ccccc1)CN(CC(=O)N[C@@H](Cc1ccccc1)CN(CC(N)=O)C(=O)CC(=O)O)C(=O)CC(=O)O)C(=O)CC(=O)O)C(C)=O)C(C)=O ... > 500 µg/mL
CCCCCCCCCCCCCCCC(=O)N[C@@H](CCCCN)CN(CC(=O)N[C@@H](CCCCN)CN(CC(=O)N[C@@H](CCCCN)CN(CC(N)=O)C(=O)CCCN)C(=O)CCCN)C(=O)CCCN ... > 500 µg/mL
CCCCCCCCCCCCCCCC(=O)N[C@@H](CCCCN)CN(CC(=O)N[C@@H](CCCCN)CN(CC(N)=O)C(=O)CCCN)C(=O)CCCN ... 300 µg/mL
CC(=O)N(CC(=O)N[C@@H](C)CN(CC(=O)N[C@@H](CC(C)C)CN(CC(=O)N[C@@H](CC(C)C)CN(CC(=O)N[C@@H](CC(C)C)CN(CC(N)=O)C(=O)CCCN)C(=O)CCCN)C(=O)CCCN)C(C)=O)C[C@H](C)N ... > 500 µg/mL

###

- Test protocol: Toxicity in human RBC assessed as hemolysis after 1 hr
- Type: cell-based, Erythrocyte
- Experimental conditions: red blood cells
Known HC50 at 1 h of a selection of molecules
Quantity: HC50 at 1 h

CCCCCCCC/C=C\CCCCCCCC(=O)N[C@@H](C)CN(CC(=O)N[C@@H](C)CN(CC(=O)N[C@@H](CC(C)C)CN(CC(=O)N[C@@H](CC(C)C)CN(CC(=O)N[C@@H](CC(C)C)CN(CC(N)=O)C(=O)CCCN)C(=O)CCCN)C(=O)CCCN)C(C)=O)C(C)=O ... > 500 µg/mL
CCCCCCCCCCCCCCCC(=O)N[C@@H](C)CN(CC(=O)N[C@@H](C)CN(CC(=O)N[C@@H](CC(C)C)CN(CC(=O)N[C@@H](CC(C)C)CN(CC(=O)N[C@@H](CC(C)C)CN(CC(N)=O)C(=O)CCCN)C(=O)CCCN)C(=O)CCCN)C(C)=O)C(C)=O ... > 500 µg/mL
CC(C)C[C@@H](CN(CC(=O)N[C@@H](CCCCN)CN(CC(N)=O)C(=O)CCc1ccccc1)C(=O)CCc1ccccc1)NC(=O)CN(C[C@H](CCCCN)NC(=O)CN(C[C@H](CCCCN)NC(=O)CN(C[C@H](CC(C)C)NC(=O)CN(C[C@H](CCCCN)NC(=O)CN(C[C@@H](N)CCCCN)C(=O)CCc1ccccc1)C(=O)CCc1ccccc1)C(=O)CCc1ccccc1)C(=O)CCc1ccccc1)C(=O)CCc1ccccc1 ... 300 µg/mL
CCCCCCCCCCCC(=O)N[C@@H](CCCCN)CN(CC(N)=O)C(=O)CCCN ... > 500 µg/mL
CCCCCCCCCCCCCCCC(=O)N[C@@H](C)CN(CC(=O)N[C@@H](C)CN(CC(=O)N[C@@H](CCCCN)CN(CC(=O)N[C@@H](CCCCN)CN(CC(=O)N[C@@H](CCCCN)CN(CC(N)=O)C(=O)CCCN)C(=O)CCCN)C(=O)CCCN)C(C)=O)C(C)=O ... > 500 µg/mL

###

- Test protocol: Toxicity in human RBC assessed as hemolysis after 1 hr
- Assay type: cell-based, Erythrocyte
- Experimental conditions: erythrocyte, 1 h
So basically: is HC10 under 200 µg/mL? Then Satisfied. Not under? Then Not satisfied.

CCCCCCCC/C=C\CCCCCCCC(=O)N[C@@H](CCCCN)C(=O)N[C@@H](CCCCN)CN(CC(N)=O)C(=O)CCCN ... Satisfied
CC(=O)N(CC(=O)N[C@@H](C)CN(CC(=O)N[C@@H](CC(C)C)CN(CC(=O)N[C@@H](CC(C)C)CN(CC(=O)N[C@@H](CC(C)C)CN(CC(N)=O)C(=O)CCCN)C(=O)CCCN)C(=O)CCCN)C(C)=O)C[C@H](C)N ... Satisfied
CCCCCCCC/C=C\CCCCCCCC(=O)N[C@@H](C)CN(CC(=O)N[C@@H](C)CN(CC(=O)N[C@@H](CC(C)C)CN(CC(=O)N[C@@H](CC(C)C)CN(CC(=O)N[C@@H](CC(C)C)CN(CC(N)=O)C(=O)CCCN)C(=O)CCCN)C(=O)CCCN)C(C)=O)C(C)=O ... Satisfied
CCCCCCCCCCCC(=O)N[C@@H](CCCCN)CN(CC(N)=O)C(=O)CCCN ... Not satisfied

###

- Test protocol: Toxicity in human RBC assessed as hemolysis after 1 hr
- Type: cell-based, Erythrocyte
- Experimental conditions: red blood cells
Form field: HC50 at 1 h (one value per entry).
Quantity: HC50 at 1 h

CCCCCCCC/C=C\CCCCCCCC(=O)N[C@@H](CCCCN)C(=O)N[C@@H](CCCCN)CN(CC(N)=O)C(=O)CCCN ... > 500 µg/mL
CCCCCCCC/C=C\CCCCCCCC(=O)N[C@@H](CCCCN)CN(CC(N)=O)C(=O)CCCN ... 100 µg/mL
CCCCCCCC/C=C\CCCCCCCC(=O)N[C@@H](CCCCN)CN(CC(=O)N[C@@H](CCCCN)CN(CC(N)=O)C(=O)CCCN)C(=O)CCCN ... > 500 µg/mL
CCCCCCCCCCCCCCCC(=O)N[C@@H](CCCCN)CN(CC(N)=O)C(=O)CCCN ... 40 µg/mL

###

- Test protocol: Toxicity in human RBC assessed as hemolysis after 1 hr
- Format: cell-based, Erythrocyte
- Experimental conditions: erythrocyte, 1 h
# HC10 per record follows
Quantity: HC10 (µg/mL)

CCCCCCCC/C=C\CCCCCCCC(=O)N[C@@H](CCCCN)CN(CC(N)=O)C(=O)CCCN ... 40
CCCCCCCCCCCCCCCC(=O)N[C@@H](CCCCN)CN(CC(=O)N[C@@H](CCCCN)CN(CC(=O)N[C@@H](CCCCN)CN(CC(N)=O)C(=O)CCCN)C(=O)CCCN)C(=O)CCCN ... 300
CCCCCCCCCCCCCCCC(=O)N[C@@H](C)CN(CC(=O)N[C@@H](C)CN(CC(=O)N[C@@H](Cc1ccccc1)CN(CC(=O)N[C@@H](Cc1ccccc1)CN(CC(=O)N[C@@H](Cc1ccccc1)CN(CC(N)=O)C(=O)CC(=O)O)C(=O)CC(=O)O)C(=O)CC(=O)O)C(C)=O)C(C)=O ... 200
CCCCCCCCCCCCCCCC(=O)N[C@@H](CCCCN)CN(CC(=O)N[C@@H](CCCCN)CN(CC(N)=O)C(=O)CCCN)C(=O)CCCN ... 40

###

Let's look at some molecules and their measured MIC.
- System: Enterococcus faecalis
- Test protocol: Antibacterial activity against vancomycin-resistant Enterococcus faecalis ATCC 700802 after 24 hrs by broth micro-dilution method
- Assay type: functional
- Experimental conditions: ATCC 700802, 24 h
Quantity: MIC (µg/mL)

CC(C)C[C@@H](CN(CC(=O)N[C@@H](CCCCN)CN(CC(N)=O)C(=O)CCc1ccccc1)C(=O)CCc1ccccc1)NC(=O)CN(C[C@H](CCCCN)NC(=O)CN(C[C@H](CCCCN)NC(=O)CN(C[C@H](CC(C)C)NC(=O)CN(C[C@H](CCCCN)NC(=O)CN(C[C@@H](N)CCCCN)C(=O)CCc1ccccc1)C(=O)CCc1ccccc1)C(=O)CCc1ccccc1)C(=O)CCc1ccccc1)C(=O)CCc1ccccc1 ... 5
CCCCCCCCCCCCCCCC(=O)N[C@@H](C)CN(CC(=O)N[C@@H](C)CN(CC(=O)N[C@@H](CCCCN)CN(CC(=O)N[C@@H](CCCCN)CN(CC(=O)N[C@@H](CCCCN)CN(CC(N)=O)C(=O)CCCN)C(=O)CCCN)C(=O)CCCN)C(C)=O)C(C)=O ... 10
CCCCCCCC/C=C\CCCCCCCC(=O)N[C@@H](CCCCN)CN(CC(N)=O)C(=O)CCCN ... 2.5

###

- Test system: Enterococcus faecalis
- Test protocol: Antibacterial activity against vancomycin-resistant Enterococcus faecalis ATCC 700802 after 24 hrs by broth micro-dilution method
- Format: functional
- Experimental conditions: ATCC 700802, 24 h
Quantity: MIC (µg/mL)

CCCCCCCC/C=C\CCCCCCCC(=O)N[C@@H](CCCCN)C(=O)N[C@@H](CCCCN)CN(CC(N)=O)C(=O)CCCN ... 2.5
CCCCCCCCCCCCCCCC(=O)N[C@@H](CCCCN)CN(CC(=O)N[C@@H](CCCCN)CN(CC(N)=O)C(=O)CCCN)C(=O)CCCN ... 8
CCCCCCCC/C=C\CCCCCCCC(=O)N[C@@H](CCCCN)CN(CC(=O)N[C@@H](CCCCN)CN(CC(N)=O)C(=O)CCCN)C(=O)CCCN ... 5
CCCCCCCCCCCCCCCC(=O)N[C@@H](C)CN(CC(=O)N[C@@H](C)CN(CC(=O)N[C@@H](CC(C)C)CN(CC(=O)N[C@@H](CC(C)C)CN(CC(=O)N[C@@H](CC(C)C)CN(CC(N)=O)C(=O)CCCN)C(=O)CCCN)C(=O)CCCN)C(C)=O)C(C)=O ... 5

Values compiled from ChEMBL document CHEMBL2046294.
